# Tested on: 192522-019-R-J2-PDC complex tumor spheroid viability
# protocol.details: Anticancer human tumor 192522-019-R-J2-PDC patient-derived colon adenocarcinoma cell line growth inhibition [POLQ]
# experimental.parameters: second compound 0.316 µM; first compound 10 µM; stronger effect = lower value
assay.metric: viability, T/C (%)

{"columns": ["compound", "observed"],
 "data": [
  ["CC1COCCN1c1cc(C2(S(C)(=N)=O)CC2)nc(-c2ccnc3[nH]ccc23)n1 (centres undefined) + Cc1cccc(N(C)C(=O)C2C(O)CCN2c2nc(C)cc(C(F)(F)F)c2C#N)c1", 37.6],
  ["COc1ccc([C@@H](O)c2cc(-c3ncnc4cc(N5CCOCC5)ccc34)c(F)cc2Cl)nn1 + COC1C(OC(N)=O)C(O)C(Oc2ccc3c(O)c(NC(=O)c4ccc(O)c(CC=C(C)C)c4)c(=O)oc3c2C)OC1(C)C", 68.5],
  ["Nc1ccn(C2OC(CO)C(O)C2(F)F)c(=O)n1 (centres undefined) + Cc1cccc(N(C)C(=O)C2C(O)CCN2c2nc(C)cc(C(F)(F)F)c2C#N)c1", 57.6],
  ["CC1COCCN1c1cc(-c2ccnn2C)c2ccnc(-c3ccn[nH]3)c2n1 (centres undefined) + Nc1ccc(C#CCN(C(=O)Cc2ncc(C(F)(F)F)cc2C(F)(F)F)c2ccc(F)cc2)nn1", 54.2],
  ["CNCc1ccc(-c2[nH]c3cc(F)cc4c3c2CCNC4=O)cc1 + Nc1ccc(C#CCN(C(=O)Cc2ncc(C(F)(F)F)cc2C(F)(F)F)c2ccc(F)cc2)nn1", 107],
  ["CCc1cc2c(N3CCc4c(cc(Cn5ccnc5)cc4-c4cn(C)nc4C(F)(F)F)C3=O)ccnc2c(OC)n1 + Cc1cccc(N(C)C(=O)C2C(O)CCN2c2nc(C)cc(C(F)(F)F)c2C#N)c1", 72.9],
  ["COc1cc(C2c3cc4c(cc3C(OC3OC5COC(C)OC5C(O)C3O)C3COC(=O)C23)OCO4)cc(OC)c1O (centres undefined) + Nc1ccc(C#CCN(C(=O)Cc2ncc(C(F)(F)F)cc2C(F)(F)F)c2ccc(F)cc2)nn1", 80],
  ["CC1COCCN1c1cc(C2(O)CC3CCC(C2)O3)c2cnn(-c3ccn[nH]3)c2n1 (centres undefined) + Nc1ccc(C#CCN(C(=O)Cc2ncc(C(F)(F)F)cc2C(F)(F)F)c2ccc(F)cc2)nn1", 48.6],
  ["CC(C)n1c(=O)n(C)c2cnc3cc(F)c(-c4ccc(OCCCN5CCCCC5)nc4)cc3c21 + COC1C(OC(N)=O)C(O)C(Oc2ccc3c(O)c(NC(=O)c4ccc(O)c(CC=C(C)C)c4)c(=O)oc3c2C)OC1(C)C", 106]
]}

====

# Test system: 192522-019-R-J2-PDC complex tumor spheroid viability
# protocol.details: Anticancer human tumor 192522-019-R-J2-PDC cell line growth inhibition [POLQ];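 further: spheroids exposed to drugs for seven days before reading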
# experimental.parameters: curve of first compound; second compound 1 µM
pIC50: −log10 of the molar value.
Each entry below carries its reported pIC50.

{"columns": ["compound", "system.tested", "pIC50"],
 "data": [
  ["CC(=O)O[C@H]1C(=O)[C@@]2(C)[C@H]([C@H](OC(=O)c3ccccc3)[C@]3(O)C[C@H](OC(=O)[C@H](O)[C@@H](NC(=O)c4ccccc4)c4ccccc4)C(C)=C1C3(C)C)[C@]1(OC(C)=O)CO[C@@H]1C[C@@H]2O + Cc1cccc(N(C)C(=O)C2C(O)CCN2c2nc(C)cc(C(F)(F)F)c2C#N)c1", "192522-019-R-J2-PDC complex tumor spheroid viability", "< 5.52"],
  ["Nc1ccn(C2OC(CO)C(O)C2(F)F)c(=O)n1 (stereo unspecified) + COC1C(OC(N)=O)C(O)C(Oc2ccc3c(O)c(NC(=O)c4ccc(O)c(CC=C(C)C)c4)c(=O)oc3c2C)OC1(C)C", "192522-019-R-J2-PDC complex tumor spheroid viability", "< 5.00"],
  ["CCc1cc2c(N3CCc4c(cc(Cn5ccnc5)cc4-c4cn(C)nc4C(F)(F)F)C3=O)ccnc2c(OC)n1 + Nc1ccc(C#CCN(C(=O)Cc2ncc(C(F)(F)F)cc2C(F)(F)F)c2ccc(F)cc2)nn1", "192522-019-R-J2-PDC complex tumor spheroid viability", "< 5.00"],
  ["CCCS(=O)(=O)Nc1ccc(F)c(C(=O)c2c[nH]c3ncc(-c4ccc(Cl)cc4)cc23)c1F + Nc1ccc(C#CCN(C(=O)Cc2ncc(C(F)(F)F)cc2C(F)(F)F)c2ccc(F)cc2)nn1", "192522-019-R-J2-PDC complex tumor spheroid viability", "< 5.00"],
  ["O=C(c1cc(Cc2n[nH]c(=O)c3ccccc23)ccc1F)N1CCN(C(=O)C2CC2)CC1 + Cc1cccc(N(C)C(=O)C2C(O)CCN2c2nc(C)cc(C(F)(F)F)c2C#N)c1", "192522-019-R-J2-PDC complex tumor spheroid viability", "< 5.00"],
  ["COc1ccc([C@@H](O)c2cc(-c3ncnc4cc(N5CCOCC5)ccc34)c(F)cc2Cl)nn1 + Nc1ccc(C#CCN(C(=O)Cc2ncc(C(F)(F)F)cc2C(F)(F)F)c2ccc(F)cc2)nn1", "192522-019-R-J2-PDC complex tumor spheroid viability", "< 5.00"]
]}

These entries and their values trace back to PubChem BioAssay AID1963850.
